Molecular target: Prothrombin (Homo sapiens)
Test: Inhibition of Thrombin (unknown origin) assessed as residual enzyme activity at 20 uM by FRET assay relative to control
Entries annotated with measured Activity
Give the value in % but do not write % after it.

Incoming: Could you share which Activity value was measured for `Cc1ccc(S(=O)(=O)N2CCC[C@@H]2C(=O)Nc2nc3cc(O)c(O)cc3s2)cc1` ?
Outgoing: 97

---

Assay: Chemical stability of compound in tris assay buffer at pH 9 measured after 15 mins by HPLC/MS analysis
Format: physicochemical
Details: pH 9, 0.25 h
Quick reference: Stabilty of the listed items.
Enter your answer as a number in %; do not include the unit.

# structure-as-smiles, Stabilty / %
records = [
    ("O=C(Nc1nc2cc(O)c(O)cc2s1)c1ccc(I)cc1", 83),
    ("O=C(Nc1ccccc1)c1nc2cc(O)c(O)cc2s1", 95),
    ("O=C(Nc1ccccc1)c1cc2cc(O)c(O)cc2o1", 83),
    ("O=C(Nc1nc2cc(O)c(O)cc2s1)C(c1ccccc1)c1ccccc1", 83),
    ("O=C(Nc1ccccc1)[C@@H]1CCCN1C(=O)c1cc2cc(O)c(O)cc2o1", 83),
]

Switching to the query record.
Incoming: Quick one: Stabilty for `O=C(Nc1nc2cc(O)c(O)cc2s1)c1ccccc1` ?
Outgoing: 67

---

Record: pIC50 reported on Genome polyprotein (dengue virus type 2, UniProt P29990).
Just the number, please; pIC50 means minus log10 of the concentration in mol/L.

# structure-as-smiles, target, pIC50
records = [
    ("Cc1ccc(C(=O)Nc2nc3cc(O)c(O)cc3s2)cc1", "Genome polyprotein (dengue virus type 2, UniProt P29990)", 5.19),
    ("O=C(Nc1ccccc1)[C@@H]1CCCCN1C(=O)c1cc2cc(O)c(O)cc2o1", "Genome polyprotein (dengue virus type 2, UniProt P29990)", 5.33),
    ("O=C(Nc1nc2cc(O)c(O)cc2s1)c1ccc(-c2ccccc2)cc1", "Genome polyprotein (dengue virus type 2, UniProt P29990)", 5.11),
    ("O=C(Nc1nc2cc(O)c(O)cc2s1)C(c1ccccc1)c1ccccc1", "Genome polyprotein (dengue virus type 2, UniProt P29990)", 4.95),
]

Incoming: Return reported pIC50; argument: `O=C(Nc1ccccc1)c1cc2cc(O)c(O)cc2o1`
Outgoing: 6.16

Incoming: And then `O=C(C[C@H](NC(=O)c1ccccc1)C(=O)Nc1nc2cc(O)c(O)cc2s1)Nc1ccccc1` , what is it?
Outgoing: 5.00

Incoming: Follow-up item: `O=[N+]([O-])c1ccc2nc(NC(=S)Nc3ccc(I)cc3)sc2c1`
Outgoing: 4.95

---

Biological target: Urokinase-type plasminogen activator (Homo sapiens) (UniProt P00749)
Experiment: Inhibition of Urokinase plasminogen activator (unknown origin) assessed as residual enzyme activity at 20 uM by FRET assay relative to control
measured-attribute: Activity (%)
// return numeric value only (unit: %, not printed)

# structure-as-smiles, measured-attribute, unit-of-measure, observed-measurement
data = [
    ("O=C(Nc1ccccc1)[C@@H]1CCCN1C(=O)c1cc2cc(O)c(O)cc2o1", "Activity", "%", 82),
]

Incoming: Query (compound): `O=C(Nc1nc2cc(O)c(O)cc2s1)c1ccc(I)cc1` ; field requested: Activity
Outgoing: 100

Incoming: Further, for `O=C(Nc1nc2cc(O)c(O)cc2s1)C(c1ccccc1)c1ccccc1` ?
Outgoing: 62

Incoming: Try `Cc1ccc(S(=O)(=O)N2CCC[C@@H]2C(=O)Nc2nc3cc(O)c(O)cc3s2)cc1` next.
Outgoing: 100

Incoming: Please do the same for `O=C(Nc1ccccc1)c1cc2cc(O)c(O)cc2o1` as well.
Outgoing: 91

Incoming: What about this compound? `O=C(Nc1ccccc1)[C@@H]1CCCCN1C(=O)c1cc2cc(O)c(O)cc2o1`
Outgoing: 94

Incoming: And the next one, `O=C(Nc1nc2cc(O)c(O)cc2s1)c1ccccc1` ?
Outgoing: 100

---

Reported Stabilty by item:
Experiment: Chemical stability of compound in tris assay buffer at pH 9 measured after 90 mins by HPLC/MS analysis
Assay type: physicochemical
Conditions: pH 9, 1.5 h
Reply with just the number (in %).

# structure-as-smiles, observed-measurement
records = [
    ("O=C(Nc1nc2cc(O)c(O)cc2s1)c1ccc(I)cc1", 83),
]

Incoming: // returns reported Stabilty for input `O=C(Nc1ccccc1)[C@@H]1CCCN1C(=O)c1cc2cc(O)c(O)cc2o1`
Outgoing: 83

---

Experiment: Inhibition of Rhodesain (unknown origin) assessed as residual enzyme activity at 20 uM by FRET assay relative to control
measured-attribute: Activity (%)
Provide the reading as a plain figure in %.

Solved cases (6 shown):
# structure-as-smiles, observed-measurement
measured = [
    ("Cc1ccc(S(=O)(=O)N2CCC[C@@H]2C(=O)Nc2nc3cc(O)c(O)cc3s2)cc1", 93),
    ("O=C(Nc1ccccc1)[C@@H]1CCCN1C(=O)c1cc2cc(O)c(O)cc2o1", 93),
    ("O=C(Nc1nc2cc(O)c(O)cc2s1)C(c1ccccc1)c1ccccc1", 86),
    ("O=C(Nc1ccccc1)[C@@H]1CCCCN1C(=O)c1cc2cc(O)c(O)cc2o1", 90),
    ("O=C(Nc1nc2cc(O)c(O)cc2s1)c1ccc(I)cc1", 77),
    ("O=C(Nc1ccccc1)c1cc2cc(O)c(O)cc2o1", 93),
]

--- query ---
Incoming: Name the reported Activity value associated with the compound `O=C(Nc1nc2cc(O)c(O)cc2s1)c1ccccc1`
Outgoing: 91

---

Biological target: Trypsin (Homo sapiens) (UniProt P07477+P07478+P35030)
Test: Inhibition of Trypsin (unknown origin) assessed as residual enzyme activity at 20 uM by FRET assay relative to control
Assay type: protein assay
Assign class by Activity: not lower than 90% means class 1; lower than 90% means class 0.

Reference set (5 entries):
# structure-as-smiles, target, assigned-label
records = [
    ("Cc1ccc(S(=O)(=O)N2CCC[C@@H]2C(=O)Nc2nc3cc(O)c(O)cc3s2)cc1", "Trypsin (Homo sapiens) (UniProt P07477+P07478+P35030)", "class 1"),
    ("O=C(Nc1nc2cc(O)c(O)cc2s1)c1ccccc1", "Trypsin (Homo sapiens) (UniProt P07477+P07478+P35030)", "class 0"),
    ("O=C(Nc1ccccc1)c1cc2cc(O)c(O)cc2o1", "Trypsin (Homo sapiens) (UniProt P07477+P07478+P35030)", "class 1"),
    ("O=C(Nc1nc2cc(O)c(O)cc2s1)C(c1ccccc1)c1ccccc1", "Trypsin (Homo sapiens) (UniProt P07477+P07478+P35030)", "class 0"),
    ("O=C(Nc1nc2cc(O)c(O)cc2s1)c1ccc(I)cc1", "Trypsin (Homo sapiens) (UniProt P07477+P07478+P35030)", "class 1"),
]

Kindly consider the entry below.
Incoming: Exam item: decide whether the reported Activity for `O=C(Nc1ccccc1)[C@@H]1CCCCN1C(=O)c1cc2cc(O)c(O)cc2o1` is at least 90%.
Outgoing: class 1

---

Target: Genome polyprotein (dengue virus type 2)
Assay: Inhibition of DENV2 NS2B-NS3 protease expressed in Escherichia coli BL21(DE3) using Boc-Gly-Arg-Arg-AMC as substrate at 20 uM by FRET assay
Listed here: items and their measured inhibition.
Dear colleague, please return just the value in %, with no unit written.

The following compounds have reported results that may help.
# compound, target, inhibition (%)
records = [
    ("O=C(CN(C(=O)c1ccccc1)c1ccccc1)Nc1nc2cc(O)c(O)cc2s1", "Genome polyprotein (dengue virus type 2)", 56),
    ("Cc1ccc(S(=O)(=O)N[C@@H](C)C(=O)Nc2nc3cc(O)c(O)cc3s2)cc1", "Genome polyprotein (dengue virus type 2)", 39),
    ("O=C(Nc1ccccc1)[C@@H]1CCCN1C(=O)c1ccc2cc(O)c(O)cc2c1", "Genome polyprotein (dengue virus type 2)", 9),
]

Incoming: Bench note: what inhibition did `CC[C@H](C)[C@H](NS(=O)(=O)c1ccc(C)cc1)C(=O)Nc1nc2cc(O)c(O)cc2s1` show?
Outgoing: 33

Incoming: Also Cc1ccc(S(=O)(=O)NC(CSCc2ccccc2)C(=O)Nc2nc3cc(O)c(O)cc3s2)cc1 (single isomer, unassigned) ?
Outgoing: 57

Incoming: And what about the compound `O=C(N[C@@H](Cc1ccc(O)cc1)C(=O)Nc1nc2cc(O)c(O)cc2s1)c1ccccc1` ?
Outgoing: 63

Incoming: And the next one, `O=C(Nc1ccccc1)[C@@H]1CCCN1C(=O)c1cc2cc(O)c(O)cc2[nH]1` ?
Outgoing: 36

Incoming: Next up: `O=C(Nc1nc2cc(O)c(O)cc2s1)C(c1ccc(Cl)cc1)c1ccc(Cl)cc1`
Outgoing: 58

Incoming: Let us now turn to `CCN(CC)C(=O)C[C@H](NC(=O)c1ccccc1)C(=O)Nc1nc2cc(O)c(O)cc2s1`
Outgoing: 16

Where do the numbers come from? From ChEMBL document CHEMBL4823320.
